Measured IC50 of enzyme inhibition accompanies every entry in the list below.
Molecular target: T1, matriptase (Charles Craik, UCSF), recombinant (Homo sapiens (Human)) (UniProt Q9Y5Y6)
T1 sequence: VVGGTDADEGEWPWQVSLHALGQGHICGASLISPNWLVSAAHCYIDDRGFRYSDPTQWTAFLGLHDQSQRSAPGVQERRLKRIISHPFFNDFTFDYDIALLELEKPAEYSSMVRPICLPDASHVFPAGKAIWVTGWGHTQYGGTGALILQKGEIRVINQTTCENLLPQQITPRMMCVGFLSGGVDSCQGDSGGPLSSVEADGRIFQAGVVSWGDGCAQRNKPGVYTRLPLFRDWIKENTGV
Primed or numbered codes have the meaning given here. *: point of attachment. kt = C-terminal ketothiazole, c1csc(*)n1; kt″ = ketothiazole, c1csc(*)n1
Give a bare numeral; the unit nM is implied.

Ac-SHLR-kt (SMILES CC(=O)N[C@@H](CO)C(=O)N[C@@H](Cc1c[nH]cn1)C(=O)N[C@@H](CC(C)C)C(=O)N[C@@H](CCCNC(=N)N)C(=O)c1nccs1) [Ac-SHLR(SEQ ID NO: 11)-kt] :: 560
Ac-SKLR-kt (SMILES CC(=O)N[C@@H](CO)C(=O)N[C@@H](CCCCN)C(=O)N[C@@H](CC(C)C)C(=O)N[C@@H](CCCNC(=N)N)C(=O)c1nccs1) [Ac-SKLR(SEQ ID NO: 10)-kt] :: 48
Ac-WKLR-kt (SMILES CC(=O)N[C@@H](Cc1c[nH]c2ccccc12)C(=O)N[C@@H](CCCCN)C(=O)N[C@@H](CC(C)C)C(=O)N[C@@H](CCCNC(=N)N)C(=O)c1nccs1) [Ac-WKLR(SEQ ID NO: 12)-kt] :: 97

Form field: reported IC50 of enzyme inhibition of Ac-KQLR-{kt″} (SMILES CC(=O)N[C@@H](CCCCN)C(=O)N[C@@H](CCC(N)=O)C(=O)N[C@@H](CC(C)C)C(=O)N[C@@H](CCCNC(=N)N)C(=O)c1nccs1) [Ac-KQLR(SEQ ID NO: 1)-kt] 5
